- System: MALME-3M melanoma
- assay explanation: NCI-60 one-dose screen, 48 h
- recorded conditions: 10 µM unless noted
This is part of a sample that, as a whole, favours compounds with a hit. Of some 83,000 tested, about 20% had one in any assay. Activity calls are given as the source filed them. Rule for the calls: active = growth percent below 10; inactive = the rest.
// one of Yes for active, No for inactive, no free text

{"compound": "COc1cccc(-c2nc(-c3ccc(NC(=O)c4ccccc4)cc3)[nH]c2-c2ccnc(Br)c2)c1", "class assignment": "No"}
{"compound": "O=C1c2cccc3cccc(c23)C(=O)N1Nc1nc(N2CCOCC2)nc(N2CCN(c3ccccc3)CC2)n1", "class assignment": "No"}

## Input Per the assay record, what outcome was assigned to CN(C)CCN1CCN(c2ncccc2C2Nc3ccccc3-n3cccc32)CC1 (stereo unspecified) ?
## Output No

## Input And then `COc1cc(CCC[P+](c2ccccc2)(c2ccccc2)c2ccccc2)c(OC)c(OC)c1OC` , what is it?
## Output No

## Input And then Cc1cccc2c3c(sc12)C(c1ccc(F)cc1)C(C#N)=C(N)O3 (stereo unspecified) , what is it?
## Output No

## Input And then OC(COc1ccccc1)CN1CCN(c2ccc(Cl)cc2)CC1 (stereo unspecified) , what is it?
## Output No

## Input And then `C[N+]1=C(/C=C/c2ccc(O)c3ncccc23)C(C)(C)c2ccccc21` , what is it?
## Output No

## Input And then `COc1ccc(/C=C2\Oc3cc(OCCN4CCC(Cc5ccccc5)CC4)ccc3C2=O)cc1OC` , what is it?
## Output No

## Input And then `Cc1nc(/N=C(\N)NC(=O)Nc2ccccc2Cl)sc1C` , what is it?
## Output No

## Input And then `O=S(=O)(NCCCNc1cc(-c2c(-c3cccc(O)c3)nc3sccn23)ccn1)c1cccc2ccccc12` , what is it?
## Output No

* * *

- System: T-47D breast
- assay explanation: NCI-60 one-dose screen, 48 h
- recorded conditions: 10 µM unless noted
The panel holds about 83,000 compounds, 20% with a hit somewhere; the sample as a whole holds those more often. Activity calls are given as the source filed them. How the source made its calls: active means growth percent below 10; inactive means the rest.
// one of t (active), f (inactive), no free text

{"molecule": "c1ccc(Nc2cc(-c3cccnc3)[nH]n2)cc1", "class assignment": "f"}
{"molecule": "Cc1ccc(S(=O)(=O)N/N=C/C2(c3ccccc3)CC2)cc1", "class assignment": "f"}
{"molecule": "CCOC(=O)Cn1c(=O)c2c(c3ccccc3n2C)n2nnc(-c3ccccc3)c12", "class assignment": "f"}
{"molecule": "OC(COc1ccccc1Cl)CN1CCN(c2cccc(Cl)c2)CC1 (stereo not drawn)", "class assignment": "f"}
{"molecule": "COc1cc(/C=C/c2c(C(C)=O)c(C)nc3ccccc23)cc(OC)c1OC", "class assignment": "f"}
{"molecule": "CS(=O)(=O)Nc1cc(-c2ccc3ncnc(Nc4cccc(Cl)c4F)c3c2)cnc1Cl", "class assignment": "t"}

## Input Per the assay record, what outcome was assigned to COc1ccc(C2NC(=O)C(C#N)c3c2sc2c(F)cccc32)c(OC)c1 (stereo not drawn) ?
## Output f

## Input And then `c1ccc2c(-c3nc(-c4c[nH]c5ccncc45)cs3)c[nH]c2c1` , what is it?
## Output f

## Input And then `CCOC(=O)c1cn2ncnc(Oc3ccc(NC(=O)NCCN4CCOCC4)c(Cl)c3)c2c1C` , what is it?
## Output f

## Input And then `CCN(CC)CCNC(=O)c1cn2ncnc(Oc3ccc(NC(=O)Nc4ccc(Cl)c(C(F)(F)F)c4)cc3)c2c1C` , what is it?
## Output t

## Input And then CCCCCCN1C(=O)/C(=c2\sc3n(c2=O)C2C(NN=3)N(CC)C(=O)N2CC)c2ccccc21 (stereo not drawn) , what is it?
## Output f

## Input And then `O=C(Nc1ccc(Br)cc1F)c1cc(Br)ccc1O` , what is it?
## Output t

## Input And then `CCOC(=O)Nc1ccc(-c2nc(-c3cccc(OCCN4CCOCC4)c3)c(-c3ccnc(Br)c3)[nH]2)cc1` , what is it?
## Output f

## Input And then `CCCCn1c(-c2ccc(C(=O)O/N=C(\N)c3ccc(OC)cc3)cc2)nc(-c2ccccc2)c1-c1ccccc1` , what is it?
## Output t

## Input And then O=C(CS(=O)c1oc(-c2cccs2)nc1S(=O)(=O)c1ccc(Br)cc1)c1ccccc1 (stereo not drawn) , what is it?
## Output f

## Input And then `CCc1ccc(Oc2c(-c3ccc(OCCc4cccc(C(F)(F)F)c4)cc3O)n[nH]c2C(F)(F)F)cc1` , what is it?
## Output t

## Input And then `COc1ccc(-c2csc(NC(=O)N3CCN(c4cc5c(cc4F)c(=O)c(C(=O)O)cn5C4CC4)CC3)n2)cc1` , what is it?
## Output t

## Input And then `CCOC(=O)c1c(C)nc2c(c1N)CC(=O)N2Cc1ccc(F)cc1` , what is it?
## Output f
